# TGT: T1, Ep-CAM (UniProt P16422 24-265, limits assumed)
# T1 construct: Amine coupled to a CM5 chip in the Biacore assays
# T1 sequence (looked up): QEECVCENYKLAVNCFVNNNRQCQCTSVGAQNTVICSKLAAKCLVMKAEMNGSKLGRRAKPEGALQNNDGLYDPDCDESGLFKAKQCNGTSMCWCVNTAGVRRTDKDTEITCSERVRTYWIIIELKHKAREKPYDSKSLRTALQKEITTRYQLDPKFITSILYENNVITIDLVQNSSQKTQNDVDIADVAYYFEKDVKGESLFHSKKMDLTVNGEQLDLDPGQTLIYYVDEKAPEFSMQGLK
# PROCEDURE_TEXT: Biacore, Fab periplasmic extract
The binders listed here are annotated with their fold difference in affinity vs parental ING-1.
QUANTITY_KIND: fold difference in affinity vs parental ING-1 (fold)

1) ING-1 light chain Y37E (Fab, V domains shown, Fab, periplasmic extract) VH: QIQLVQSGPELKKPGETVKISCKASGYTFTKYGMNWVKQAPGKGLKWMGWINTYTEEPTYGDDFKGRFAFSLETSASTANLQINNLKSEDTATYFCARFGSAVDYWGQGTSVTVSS VL: DIVMTQAAFSNPVTLGTSGSISCRSSKSLLHSNGITELYWYLQKPGQSPQLLIYQMSNLASGVPDRFSSSGSGTDFTLRISRVEAEDVGVYYCAQNLELPRTFGGGTKLEMKR: 0.01
2) ING-1 light chain L99Q (Fab, V domains shown, Fab, periplasmic extract) VH: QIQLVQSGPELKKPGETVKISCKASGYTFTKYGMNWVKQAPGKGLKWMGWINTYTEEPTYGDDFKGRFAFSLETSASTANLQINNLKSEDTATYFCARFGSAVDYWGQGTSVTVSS VL: DIVMTQAAFSNPVTLGTSGSISCRSSKSLLHSNGITYLYWYLQKPGQSPQLLIYQMSNLASGVPDRFSSSGSGTDFTLRISRVEAEDVGVYYCAQNLEQPRTFGGGTKLEMKR: 0.02
3) ING-1 light chain H31R (Fab, V domains shown, Fab, periplasmic extract) VH: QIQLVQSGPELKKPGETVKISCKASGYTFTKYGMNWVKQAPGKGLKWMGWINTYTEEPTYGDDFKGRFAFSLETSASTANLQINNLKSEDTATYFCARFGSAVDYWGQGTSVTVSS VL: DIVMTQAAFSNPVTLGTSGSISCRSSKSLLRSNGITYLYWYLQKPGQSPQLLIYQMSNLASGVPDRFSSSGSGTDFTLRISRVEAEDVGVYYCAQNLELPRTFGGGTKLEMKR: 0.06
4) ING-1 light chain I35N (Fab, V domains shown, Fab, periplasmic extract) VH: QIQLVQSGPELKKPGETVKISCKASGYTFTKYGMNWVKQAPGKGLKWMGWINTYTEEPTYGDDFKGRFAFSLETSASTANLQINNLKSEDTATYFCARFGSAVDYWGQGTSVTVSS VL: DIVMTQAAFSNPVTLGTSGSISCRSSKSLLHSNGNTYLYWYLQKPGQSPQLLIYQMSNLASGVPDRFSSSGSGTDFTLRISRVEAEDVGVYYCAQNLELPRTFGGGTKLEMKR: 0.5
5) ING-1 light chain Y37N (Fab, V domains shown, Fab, periplasmic extract) VH: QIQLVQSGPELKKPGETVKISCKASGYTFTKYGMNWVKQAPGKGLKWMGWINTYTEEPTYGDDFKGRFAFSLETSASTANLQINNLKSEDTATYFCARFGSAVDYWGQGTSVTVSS VL: DIVMTQAAFSNPVTLGTSGSISCRSSKSLLHSNGITNLYWYLQKPGQSPQLLIYQMSNLASGVPDRFSSSGSGTDFTLRISRVEAEDVGVYYCAQNLELPRTFGGGTKLEMKR: 0.06

From: patent US20110118131A1
